Value source: patent US20250268821A1

# experiment: Sheep pharmacokinetics (ELF and plasma): nebulized inhaled nintedanib, fixed combination with pirfenidone, oral nintedanib
# Type: in vivo
# measurement.setup: female, Merino cross-bred, sheep, plasma; oral, 75 mg; read-out: Plasma Tmax
measurement.label: Tmax (h)

> print(dat)
                                   compound  u  number
1  COC(=O)c1ccc2c(c1)NC(=O)/C2=C(\Nc1ccc(N(C)C(=O)CN2CCN(C)CC2)cc1)c1ccccc1 [Nintedanib]  h       9

* * *

# experiment: Sheep pharmacokinetics (ELF and plasma): nebulized inhaled nintedanib, fixed combination with pirfenidone, oral nintedanib
# Type: in vivo
# measurement.setup: female, Merino cross-bred, sheep, epithelial lining fluid (ELF), po, 2.14 mg/kg, oral, 75 mg (2.14 mg/kg), 3 mg/mL in water; read-out: ELF Cmax
measurement.label: Cmax (ng/mL)

> print(dat)
                                   compound      u  number
1  COC(=O)c1ccc2c(c1)NC(=O)/C2=C(\Nc1ccc(N(C)C(=O)CN2CCN(C)CC2)cc1)c1ccccc1 [Nintedanib]  ng/mL      74

* * *

# experiment: Sheep pharmacokinetics (ELF and plasma): nebulized inhaled nintedanib, fixed combination with pirfenidone, oral nintedanib
# Type: in vivo
# measurement.setup: female, Merino cross-bred, sheep, plasma, inhaled or intranasal, 2 mg, inhaled nebulized, 2 mg; read-out: Plasma AUC
measurement.label: AUC (ng·h/mL)

> print(dat)
                              record.smiles  number
1  COC(=O)c1ccc2c(c1)NC(=O)/C2=C(\Nc1ccc(N(C)C(=O)CN2CCN(C)CC2)cc1)c1ccccc1       7

* * *

# experiment: Sheep pharmacokinetics (ELF and plasma): nebulized inhaled nintedanib, fixed combination with pirfenidone, oral nintedanib
# Format: in vivo
# measurement.setup: female, Merino cross-bred, sheep, plasma; oral, 75 mg; read-out: Plasma T1/2 (converted)
measurement.label: half-life (h)

> print(dat)
                              record.smiles  u  number
1  COC(=O)c1ccc2c(c1)NC(=O)/C2=C(\Nc1ccc(N(C)C(=O)CN2CCN(C)CC2)cc1)c1ccccc1  h      10

* * *

# experiment: Sheep pharmacokinetics (ELF and plasma): nebulized inhaled nintedanib, fixed combination with pirfenidone, oral nintedanib
# Assay type: in vivo
# measurement.setup: female, Merino cross-bred, sheep, epithelial lining fluid (ELF); oral, 75 mg; read-out: ELF Tmax
measurement.label: Tmax

> print(dat)
                                   molecule  result
1  COC(=O)c1ccc2c(c1)NC(=O)/C2=C(\Nc1ccc(N(C)C(=O)CN2CCN(C)CC2)cc1)c1ccccc1 [Nintedanib]    10 h

* * *

# experiment: Clinical study in healthy volunteers: inhaled nebulized vs oral nintedanib (ELF and plasma pharmacokinetics, safety)
# Format: in vivo
# measurement.setup: human, epithelial lining fluid (ELF), inhaled or intranasal; inhaled nebulized liquid 2 mg; read-out: ELF Cmax
measurement.label: Cmax

> print(dat)
                              record.smiles  measurement.label      result
1  COC(=O)c1ccc2c(c1)NC(=O)/C2=C(\Nc1ccc(N(C)C(=O)CN2CCN(C)CC2)cc1)c1ccccc1               Cmax  4660 ng/mL
